target: UniProt Q8VGJ5
Sequence (Q8VGJ5 as listed by the source): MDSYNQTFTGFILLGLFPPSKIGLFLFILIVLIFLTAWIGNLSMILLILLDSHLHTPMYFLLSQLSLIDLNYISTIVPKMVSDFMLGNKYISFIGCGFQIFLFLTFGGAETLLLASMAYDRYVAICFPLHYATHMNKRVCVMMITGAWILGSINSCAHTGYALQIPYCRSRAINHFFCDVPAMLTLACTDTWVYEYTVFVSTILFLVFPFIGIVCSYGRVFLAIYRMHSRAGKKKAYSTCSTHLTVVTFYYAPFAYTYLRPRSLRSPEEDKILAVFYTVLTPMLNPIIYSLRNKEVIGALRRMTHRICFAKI
condition.set: stereoisomer not certain
Pick one and only one: label 1 for active, label 0 for inactive

Solved entries (count: 3):
# smiles.record, label
data = [
    ("CCOC(=O)C(C)C", "label 1"),
    ("CCC(=O)O", "label 0"),
    ("CCCCCCCC(=O)[O-].[H+]", "label 0"),
]

**Q:** How did this test come out for `CCCCCOC(=O)CCCCC` ?
**A:** label 0

**Q:** Try the compound `CCCCCCCC(C)=O`
**A:** label 0

----------
target: UniProt Q8VF44
Sequence (Q8VF44 as listed by the source): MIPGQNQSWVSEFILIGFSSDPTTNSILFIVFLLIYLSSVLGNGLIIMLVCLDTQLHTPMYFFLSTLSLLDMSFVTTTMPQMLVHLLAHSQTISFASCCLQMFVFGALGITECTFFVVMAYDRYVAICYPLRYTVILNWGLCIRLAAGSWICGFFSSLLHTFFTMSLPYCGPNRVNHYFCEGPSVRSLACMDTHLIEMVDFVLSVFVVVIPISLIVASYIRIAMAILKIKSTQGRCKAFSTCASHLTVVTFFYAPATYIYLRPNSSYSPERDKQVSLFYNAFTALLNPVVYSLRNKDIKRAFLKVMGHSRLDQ
condition.set: stereoisomer not certain
Pick one and only one: YES = active, NO = inactive

# compound, target, label
measured = [
    ("CCCCCCOC(C)=O", "UniProt Q8VF44", "NO"),
]

**Q:** How did this test come out for `CCCCCC1=C(C)CCC1=O` ?
**A:** NO

**Q:** Try the compound `CCCCCOC(=O)CCCCC`
**A:** NO

**Q:** Try the compound `O=C(c1ccccc1)c1ccccc1`
**A:** YES

**Q:** Try the compound `CCC(=O)O`
**A:** NO

**Q:** Try the compound CC12CCC(CC1=O)C2(C)C (centres undefined)
**A:** NO

**Q:** Try the compound `CCCCCCCCO`
**A:** NO

**Q:** Try the compound `CCCCCCC(=O)[O-].[H+]`
**A:** NO

**Q:** Try the compound `CC(=O)OCC=C(C)C`
**A:** NO

----------
target: OR5K1 (Homo sapiens) (UniProt Q8NHB7)
Sequence (Q8NHB7 whole entry): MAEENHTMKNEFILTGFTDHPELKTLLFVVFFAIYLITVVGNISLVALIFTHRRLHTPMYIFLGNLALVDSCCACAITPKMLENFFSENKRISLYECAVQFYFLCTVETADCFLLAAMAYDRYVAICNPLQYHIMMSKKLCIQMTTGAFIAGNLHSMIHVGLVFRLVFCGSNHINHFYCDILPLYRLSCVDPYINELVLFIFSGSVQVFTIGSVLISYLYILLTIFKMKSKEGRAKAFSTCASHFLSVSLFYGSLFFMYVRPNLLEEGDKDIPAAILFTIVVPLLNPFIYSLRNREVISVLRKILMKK
condition.set: stereoisomer not certain
Pick one and only one: true (1) (active), false (0) (inactive)

Solved entries (count: 8):
# compound, target, label
records = [
    ("CSSSC", "OR5K1 (Homo sapiens) (UniProt Q8NHB7)", "false (0)"),
    ("CCO", "OR5K1 (Homo sapiens) (UniProt Q8NHB7)", "false (0)"),
    ("CCCCCCCC1CCCC(=O)O1 (centres undefined)", "OR5K1 (Homo sapiens) (UniProt Q8NHB7)", "false (0)"),
    ("CCOC(=O)c1ccccc1", "OR5K1 (Homo sapiens) (UniProt Q8NHB7)", "false (0)"),
    ("Cc1occc1S", "OR5K1 (Homo sapiens) (UniProt Q8NHB7)", "false (0)"),
    ("Cc1cnc(C)cn1", "OR5K1 (Homo sapiens) (UniProt Q8NHB7)", "true (1)"),
    ("SCCc1ccccc1", "OR5K1 (Homo sapiens) (UniProt Q8NHB7)", "false (0)"),
    ("C=CCSC", "OR5K1 (Homo sapiens) (UniProt Q8NHB7)", "false (0)"),
]

**Q:** How did this test come out for `CCCCCCCC(=O)[O-].[H+]` ?
**A:** false (0)

**Q:** Try the compound `CCc1cccc(O)c1`
**A:** false (0)

**Q:** Try the compound C=C1CCC2CC1C2(C)C (centres undefined)
**A:** false (0)

----------
target: UniProt L7N210
Sequence (L7N210 as listed by the source): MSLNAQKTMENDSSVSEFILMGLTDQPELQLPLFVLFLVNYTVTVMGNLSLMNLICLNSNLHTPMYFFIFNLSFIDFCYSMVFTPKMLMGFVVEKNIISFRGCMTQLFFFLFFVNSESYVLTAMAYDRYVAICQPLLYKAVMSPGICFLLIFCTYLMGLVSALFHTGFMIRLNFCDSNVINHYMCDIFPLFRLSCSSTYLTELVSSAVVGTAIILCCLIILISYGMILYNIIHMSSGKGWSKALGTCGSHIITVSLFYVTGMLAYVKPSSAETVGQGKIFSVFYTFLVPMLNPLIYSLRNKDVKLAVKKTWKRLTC
condition.set: stereoisomer not certain
Pick one and only one: active, inactive

Solved entries (count: 5):
# compound, label
data = [
    ("CC=C(C)C=O", "inactive"),
    ("CCCCCC=O", "inactive"),
    ("CCc1ccc(O)cc1", "active"),
    ("COc1cc(C(=O)O)ccc1O", "inactive"),
    ("CCC(=O)C(=O)CC", "inactive"),
]

**Q:** How did this test come out for `CCCCCCCCCC=CC=O` ?
**A:** inactive

**Q:** Try the compound `CCCCCCCC(C)=O`
**A:** inactive

**Q:** Try the compound `C=CC(=O)CCCCC`
**A:** inactive

**Q:** Try the compound `CCOC(=O)C(C)C`
**A:** inactive

----------
target: UniProt Q8VGQ3
Sequence (whole entry): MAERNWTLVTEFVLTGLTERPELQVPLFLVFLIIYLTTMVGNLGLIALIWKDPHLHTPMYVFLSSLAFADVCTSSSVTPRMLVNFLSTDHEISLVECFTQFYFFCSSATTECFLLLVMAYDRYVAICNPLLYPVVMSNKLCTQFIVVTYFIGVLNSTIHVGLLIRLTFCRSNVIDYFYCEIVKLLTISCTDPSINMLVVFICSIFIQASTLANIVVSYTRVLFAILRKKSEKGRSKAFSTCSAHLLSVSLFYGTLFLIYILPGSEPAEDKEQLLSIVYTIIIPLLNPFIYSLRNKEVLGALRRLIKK
condition.set: stereoisomer not certain
Pick one and only one: True (active), False (inactive)

Solved entries (count: 4):
# molecule, target, label
rows = [
    ("C=CCOC(=O)CCCCCC", "UniProt Q8VGQ3", "False"),
    ("O=c1ccc2ccccc2o1", "UniProt Q8VGQ3", "False"),
    ("CCCCCCC(=O)[O-].[H+]", "UniProt Q8VGQ3", "False"),
    ("COc1cc(C(=O)O)ccc1O", "UniProt Q8VGQ3", "False"),
]

**Q:** How did this test come out for C=C(C)C1CCC(C)C(=O)C1 (stereo unspecified) ?
**A:** True

**Q:** Try the molecule `CCCCCC1=C(C)CCC1=O`
**A:** False

**Q:** Try the molecule `CCCCCCCC(=O)[O-].[H+]`
**A:** False

**Q:** Try the molecule `CCCCCCCCO`
**A:** False

----------
target: OR1G1 (Homo sapiens) (UniProt P47890)
Sequence (whole entry): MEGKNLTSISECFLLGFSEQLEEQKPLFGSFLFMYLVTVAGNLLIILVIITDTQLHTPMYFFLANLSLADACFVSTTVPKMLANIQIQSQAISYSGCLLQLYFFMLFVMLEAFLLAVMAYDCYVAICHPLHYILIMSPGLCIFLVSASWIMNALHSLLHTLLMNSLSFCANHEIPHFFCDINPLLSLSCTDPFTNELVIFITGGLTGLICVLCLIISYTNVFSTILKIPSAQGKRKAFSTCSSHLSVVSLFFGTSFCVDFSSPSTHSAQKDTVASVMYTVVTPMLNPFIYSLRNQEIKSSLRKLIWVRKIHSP
condition.set: stereoisomer not certain
Pick one and only one: active, inactive

**Q:** How did this test come out for CC1CC(C)(c2ccccc2)CO1 (stereo not given) ?
**A:** inactive

**Q:** Try the compound `CCCCCCCC(C)=O`
**A:** active

**Q:** Try the compound CC=CC(=O)C1C(C)=CCCC1(C)C (stereo not given)
**A:** inactive

**Q:** Try the compound `CCCCCCC(=O)CC`
**A:** active

**Q:** Try the compound CCCCC1CCC(=O)O1 (stereo not given)
**A:** inactive

**Q:** Try the compound `OCc1ccccc1`
**A:** active

**Q:** Try the compound C=CC(C)(CCC=C(C)C)OC(C)=O (stereo not given)
**A:** inactive

**Q:** Try the compound `CC(=O)OCCC(C)C`
**A:** active

**Q:** Try the compound `CCCCCC=O`
**A:** active

**Q:** Try the compound CCCCC(S)C(C)CO (stereo not given)
**A:** inactive

----------
target: UniProt L7MU75
Sequence (L7MU75 as listed by the source): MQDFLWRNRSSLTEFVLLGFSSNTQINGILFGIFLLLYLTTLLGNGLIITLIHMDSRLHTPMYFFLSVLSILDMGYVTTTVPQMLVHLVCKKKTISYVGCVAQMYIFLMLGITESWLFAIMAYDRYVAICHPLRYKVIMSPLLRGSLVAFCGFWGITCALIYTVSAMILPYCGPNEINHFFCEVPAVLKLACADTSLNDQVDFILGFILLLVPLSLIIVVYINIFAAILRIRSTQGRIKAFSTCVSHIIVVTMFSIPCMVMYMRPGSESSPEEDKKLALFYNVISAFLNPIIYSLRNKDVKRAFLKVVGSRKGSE
condition.set: stereoisomer not certain
Pick one and only one: active, inactive

# compound, target, label
rows = [
    ("OCc1ccccc1", "UniProt L7MU75", "inactive"),
    ("CCCCC(=O)O", "UniProt L7MU75", "inactive"),
    ("CC(=O)C1(C)CC2=C(CCCC2(C)C)CC1C (stereo unspecified)", "UniProt L7MU75", "inactive"),
    ("CCCCOC=O", "UniProt L7MU75", "inactive"),
    ("CCC=O", "UniProt L7MU75", "inactive"),
    ("O=C(O)CCCCCBr", "UniProt L7MU75", "inactive"),
]

**Q:** How did this test come out for `CC(C)CN` ?
**A:** inactive

**Q:** Try the compound `OCCc1ccccc1`
**A:** inactive

**Q:** Try the compound `CCCCCCCC(C)=O`
**A:** inactive

**Q:** Try the compound `COc1nccnc1C`
**A:** active

----------
target: UniProt Q8VH20
Sequence (Q8VH20 as listed by the source): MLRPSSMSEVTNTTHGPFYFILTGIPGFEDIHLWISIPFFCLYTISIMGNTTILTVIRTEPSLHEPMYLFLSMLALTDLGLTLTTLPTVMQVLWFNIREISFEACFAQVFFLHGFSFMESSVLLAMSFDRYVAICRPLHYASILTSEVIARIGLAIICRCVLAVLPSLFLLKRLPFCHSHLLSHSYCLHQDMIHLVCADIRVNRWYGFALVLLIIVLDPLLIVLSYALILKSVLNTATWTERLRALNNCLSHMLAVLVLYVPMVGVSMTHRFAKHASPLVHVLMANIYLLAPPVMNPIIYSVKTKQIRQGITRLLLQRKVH
condition.set: stereoisomer not certain
Pick one and only one: active, inactive

Solved entries (count: 3):
# smiles.record, target, label
rows = [
    ("CCCCCCCCCO", "UniProt Q8VH20", "inactive"),
    ("Cc1ccc(C(C)C)cc1", "UniProt Q8VH20", "inactive"),
    ("Cc1ccccc1OC(=O)C(C)C", "UniProt Q8VH20", "inactive"),
]

**Q:** How did this test come out for `CCCC(C)=O` ?
**A:** inactive

**Q:** Try the molecule `CCCCCCCCCS`
**A:** inactive

**Q:** Try the molecule `CCCCCCCCC=CC=O`
**A:** inactive

**Q:** Try the molecule `CCCCCCCCCC(=O)[O-].[H+]`
**A:** active

Data provenance: the M2OR odorant receptor database
